This section presents molecules with their documented pIC50 values.
STUDY_SYSTEM: wt human TYK2, catalytic site (Homo sapiens)
Construct: wt human TYK2, catalytic site; purchased SignalChem
Sequence (P29597 897-1176 limits assumed): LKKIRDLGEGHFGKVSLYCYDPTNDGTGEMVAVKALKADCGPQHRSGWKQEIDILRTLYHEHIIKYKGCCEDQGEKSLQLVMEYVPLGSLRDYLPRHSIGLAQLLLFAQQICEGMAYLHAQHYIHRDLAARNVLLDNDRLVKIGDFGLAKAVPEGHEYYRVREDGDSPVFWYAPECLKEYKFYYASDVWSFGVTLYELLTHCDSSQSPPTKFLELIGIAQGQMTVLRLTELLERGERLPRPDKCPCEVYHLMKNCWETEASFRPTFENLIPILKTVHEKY
TEST_PROTOCOL: HTRF KinEASE assay, TYK2
Type: biochemical
PROTOCOL_CONDITIONS: 1 μM ATP; read-out: IC50, Activity Toward TYK2
pIC50: −log10 of the molar value.
REPORTED_ENDPOINT: pIC50

• CN1CCC(N(C)C(=O)c2ccc(Nc3cn(-c4c(Cl)cc(F)cc4Cl)nc3C(N)=O)cc2)CC1 = > 8.00
• N#Cc1cccc(F)c1-n1cc(Nc2ccc(C(=O)N3CCOCC3)cc2)c(C(N)=O)n1 = > 8.00
• Cn1nnnc1-c1ccc(Nc2cn(-c3c(Cl)cccc3Cl)nc2C(N)=O)cc1 = > 8.00
• CN(C)C1CCN(C(=O)c2ccc(Nc3cn(-c4c(Cl)cccc4Cl)nc3C(N)=O)cc2)C1 (centres unmarked) = 7.00 to 8.00
• CCc1ccnn1-c1ccc(Nc2cn(-c3c(F)cccc3Cl)nc2C(N)=O)cc1 = 7.00 to 8.00
• CCn1cc(C#N)nc1-c1ccc(Nc2cn(-c3c(Cl)cccc3Cl)nc2C(N)=O)cc1 = 7.00 to 8.00
• CCc1nc(C(F)(F)F)nn1-c1ccc(Nc2cn(-c3c(Cl)cccc3Cl)nc2C(N)=O)cc1 = > 8.00
• NC(=O)c1nn(-c2c(Cl)cccc2Cl)cc1Nc1ccc(OC2CCNCC2)cc1 = 7.00 to 8.00

====

STUDY_SYSTEM: wt human JAK1, catalytic site (Homo sapiens)
Construct: wt human JAK1, catalytic site
Sequence (P23458 875-1153 limits assumed): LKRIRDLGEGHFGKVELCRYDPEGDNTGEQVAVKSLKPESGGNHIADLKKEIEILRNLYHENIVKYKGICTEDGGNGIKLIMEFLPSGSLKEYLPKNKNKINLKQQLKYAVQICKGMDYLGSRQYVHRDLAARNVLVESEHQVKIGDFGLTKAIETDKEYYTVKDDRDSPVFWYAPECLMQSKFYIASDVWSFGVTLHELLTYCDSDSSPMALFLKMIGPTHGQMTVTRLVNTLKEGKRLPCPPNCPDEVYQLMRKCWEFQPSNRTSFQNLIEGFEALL
TEST_PROTOCOL: HTRF KinEASE assay, JAK1
PROTOCOL_CONDITIONS: 2.5 μM ATP; read-out: IC50, Activity Toward JAK1
pIC50: −log10 of the molar value.
Measured pIC50 values are reported for all entries that follow.
REPORTED_ENDPOINT: pIC50

• Cn1nc(C(F)(F)F)nc1-c1ccc(Nc2cn(-c3c(F)cccc3Cl)nc2C(N)=O)cc1 = > 8.00
• CCn1ccnc1-c1ccc(Nc2cn(-c3c(Cl)cccc3Cl)nc2C(N)=O)cc1 = > 8.00
• NC(=O)c1nn(-c2c(Cl)cccc2Cl)cc1Nc1ccc(C(=O)N2CC[C@H](F)C2)cc1 = 7.00 to 8.00
• NC(=O)c1nn(-c2c(Cl)cccc2Cl)cc1Nc1ccc(-c2nccn2CC(F)F)cc1 = 7.00 to 8.00
• CCn1cnnc1-c1ccc(Nc2cn(-c3c(Cl)cccc3Cl)nc2C(N)=O)cc1 = 7.00 to 8.00
• COCc1nc(C(F)(F)F)nn1-c1ccc(Nc2cn(-c3c(F)cccc3F)nc2C(N)=O)cc1 = 6.00 to 7.00
• NC(=O)c1nn(-c2c(Cl)cccc2Cl)cc1Nc1ccc(-n2nnc3c2CCCC3)cc1 = 6.00 to 7.00
• N#Cc1cccc(F)c1-n1cc(Nc2ccc(C(=O)N3CC[C@@H](F)C3)cc2)c(C(N)=O)n1 = 7.00 to 8.00

====

STUDY_SYSTEM: wt human TYK2, catalytic site (Homo sapiens)
Construct: wt human TYK2, catalytic site
TEST_PROTOCOL: HTRF KinEASE assay, TYK2
PROTOCOL_CONDITIONS: 1 μM ATP; read-out: IC50, Activity Toward TYK2
REPORTED_ENDPOINT: IC50

- Cc1cc(C)n(-c2ccc(Nc3cn(-c4c(Cl)cccc4Cl)nc3C(N)=O)cn2)n1: 100 to 1000 nM
- CC(C)c1nc(C(F)(F)F)nn1-c1ccc(Nc2cn(-c3c(Cl)cccc3Cl)nc2C(N)=O)cc1: 100 to 1000 nM
- NC(=O)c1nn(-c2c(Cl)cccc2Cl)cc1Nc1ccc(C(=O)N2CCOCC2)nc1: 10 to 100 nM
- NC(=O)c1nn(-c2c(F)cccc2F)cc1Nc1ccc(N)cn1: 100 to 1000 nM
- CN(C)Cc1nc(C(F)(F)F)nn1-c1ccc(Nc2cn(-c3c(Cl)cccc3Cl)nc2C(N)=O)cc1: < 10 nM
- CC(C)(C)NC(=O)c1ccc(Nc2cn(-c3c(F)cccc3Cl)nc2C(N)=O)cc1: 10 to 100 nM
- Cn1ccc(Nc2cn(-c3c(Cl)cccc3Cl)nc2C(N)=O)cc1=O: 100 to 1000 nM
- NC(=O)c1nn(-c2c(Cl)cccc2Cl)cc1Nc1ccc(-n2nnc3ccccc32)cc1: 100 to 1000 nM
- Cc1ccncc1-c1ccc(Nc2cn(-c3c(Cl)cccc3Cl)nc2C(N)=O)cn1: 100 to 1000 nM
- NC(=O)c1nn(-c2c(Cl)cccc2Cl)cc1Nc1ccc(C(=O)N2CC(F)C2)cn1: 100 to 1000 nM
- NC(=O)c1nn(-c2c(Cl)cccc2Cl)cc1Nc1ccc(N2CCCS2(=O)=O)cc1: 100 to 1000 nM
- NC(=O)c1nn(-c2c(Cl)cccc2Cl)cc1Nc1ccc(N2CCCCC2=O)nc1: 100 to 1000 nM
- NC(=O)c1nn(-c2c(Cl)cccc2Cl)nc1Nc1ccc(C(=O)N2CC(O)C2)cc1: < 10 nM
- NC(=O)c1nn(-c2c(Cl)cc(F)cc2Cl)nc1Nc1ccc(C(=O)N2CCSCC2)cc1: 10 to 100 nM
- N=S1(=O)CCN(C(=O)c2ccc(Nc3cn(-c4c(Cl)cccc4Cl)nc3C(N)=O)cc2)CC1: < 10 nM
- CCc1ccn(-c2ccc(Nc3cn(-c4c(Cl)cccc4Cl)nc3C(N)=O)cc2)n1: 100 to 1000 nM
